Examples of molecules with documented GI50 follow.
System: HOP-62 NSCLC
Test: NCI tumour cell line growth inhibition, 48 h

Molecule	Assayed target	GI50
C[C@@H]1CCc2ncc(F)cc2[C@H]2CCCN2c2ccn3ncc(c3n2)C(=O)N1	HOP-62 NSCLC	60 µM
CCOC(=O)[C@@H]1CSC(CC)=C(C(=O)O)N1	HOP-62 NSCLC	> 100 µM
CCOC(=O)c1c(NC(=O)c2ccc(Cl)cc2)sc2c(CN(C)C)c(O)ccc12	HOP-62 NSCLC	5.58 µM
COc1ccc(-c2cc(/C=C/C(=O)c3ccc(N)cc3)[nH]n2)cc1	HOP-62 NSCLC	2.8 µM
O=CN1N=C(c2cccc(Nc3ccnc4cc(Cl)ccc34)c2)CC1c1ccc(Cl)cc1 (stereo not given)	HOP-62 NSCLC	1.91 µM
Cc1cc(NN=C(c2ccc(O)cc2)c2ccc(O)cc2)c([N+](=O)[O-])cc1[N+](=O)[O-]	HOP-62 NSCLC	4.11 µM
CC[C@H]1OC(=O)[C@H](C)[C@@H](O[C@H]2C[C@@](C)(OC)[C@@H](O)[C@H](C)O2)[C@H](C)[C@@H](O[C@@H]2O[C@H](C)C[C@H](N(C)C)[C@H]2O)[C@](C)(OC)C/C(C)=C2/O[C@@]1(C)C=C2C	HOP-62 NSCLC	2.31 µM
C#C[C@]1(O)CC[C@H]2[C@@H]3CC=C4c5nc(N)sc5CC[C@]4(C)[C@H]3CC[C@@]21C	HOP-62 NSCLC	3.43 µM
Cc1cc(S(N)(=O)=O)c(S/C(=N\NS(=O)(=O)c2ccccc2)c2ccc(Cl)cc2)cc1Cl	HOP-62 NSCLC	> 100 µM
CC(C)OP(=O)(O)c1ncc(-c2ccc(C(F)(F)F)cc2)c(NC2CCCCCC2)n1	HOP-62 NSCLC	81.2 µM

----------
Tested on: OVCAR-4 ovarian
Test: NCI tumour cell line growth inhibition, 48 h
Examples of compounds with documented TGI follow.

Compound	TGI
Cc1ccc(S(=O)(=O)N2CCSCCSCCSCCN(S(=O)(=O)c3ccc(C)cc3)CC2)cc1	> 100 µM
Cc1ccc(C(=O)Oc2ccccc2)cc1N=NN(C)C	> 100 µM
OCCN(CO)CO	> 100 µM
CCOC(=O)/C(=C\c1ccc2ccccc2c1)P(=O)(OCC)OCC	20.1 µM
CCOc1ccc2cc(-c3nn(CC4CCNCC4)c4ncnc(N)c34)ccc2c1	33.4 µM
COc1ccc(-c2nc(Nc3ccccc3)sc2Cc2sc(Nc3ccccc3)nc2-c2ccc(OC)cc2)cc1	> 100 µM
O=P(NCCCO)(OCc1ccccc1)N(CCCl)CCCl (stereo unspecified)	> 100 µM
COC(=O)c1ccc2c(c1)CC1(C2)Cc2ccccc2C1=O (stereo unspecified)	> 100 µM
O=C1CSC(c2ccccc2O)N1c1ccc(-n2c(-c3ccccc3)nc3ccccc3c2=O)cc1 (stereo unspecified)	> 100 µM
CCCCCCCCCCCCCCCc1nc(=S)[nH][nH]1	> 100 µM
O=CN1N=C(c2cccc(Nc3ccnc4cc(Cl)ccc34)c2)CC1c1ccc(Cl)cc1 (stereo unspecified)	> 100 µM

----------
Examples of molecules with documented TGI follow.
System: SNB-19 CNS
Assay: NCI tumour cell line growth inhibition, 48 h

Molecule	TGI
O=C1Oc2ccccc2C(=O)/C1=C/N1C(=O)CNC1=S	> 100 µM
CCOC(=O)CCC(NC(=O)c1ccc(NC(OC)c2nc3cc(C(F)(F)F)ccc3nc2-c2ccccc2)cc1)C(=O)OCC (stereo not given)	27.5 µM
C1CCCN(NC2=NCCO2)CC1	> 100 µM
O=C1NC(N/N=C\c2ccccc2)=N/C1=C/c1ccccc1	73.6 µM
COc1cc2c3c(n(CCCNCCCNCCCN)c(=O)c2cc1OC)-c1cc2c(cc1C3=O)OCO2	> 100 µM
CCOC(=O)C1=C(OC(OCC)C(CC)[Se]c2ccccc2)CCC1 (stereo not given)	> 100 µM
CC(=O)Oc1cc2cnc3c4cc(OC(C)=O)c(OC(C)=O)cc4ccc3c2cc1OC(C)=O	65.9 µM
Cn1c(=O)c2c(nc(N/N=C/c3ccccc3C(=O)O)n2C)n(C)c1=O	> 100 µM
OCC(O)C(O)C(O)C(O)c1nnc2c(-c3ccccc3)nc3ccccc3n12 (stereo not given)	> 100 µM
C[C@@H]1CC[C@@H]2[C@@H](C1)O[C@@H]([C@@H](C)OCc1ccccc1)SC2(C)C	33.6 µM
CC[C@H]1OC(=O)[C@H](C)[C@@H](O[C@H]2C[C@@](C)(OC)[C@@H](O)[C@H](C)O2)[C@H](C)[C@@H](O[C@@H]2O[C@H](C)C[C@H](N(C)C)[C@H]2O)[C@](C)(OC)C/C(C)=C2/O[C@@]1(C)C=C2C	3.13 µM
Oc1ccccc1C=Nc1ccc(-c2nc3ccccc3s2)cc1	> 100 µM
COc1ccc(C2=Nn3c(nnc3-n3nc(C)cc3C)SC2)cc1	> 100 µM
COc1ccc2c(c1)C(=O)c1c-2c(OCCN(C)C)nc2cc(OC)c(OC)cc12	31.5 µM
CCOC(=O)c1c(CN2CCN(C)CC2)nc2ccc(Cl)cc2c1-c1ccccc1	25.6 µM
CCOC(=O)c1c[nH]c(C(=O)C=[N+]=[N-])c1C1CCN(CC)C1=S (stereo not given)	> 100 µM
C[C@@H]1CCc2ncc(F)cc2[C@H]2CCCN2c2ccn3ncc(c3n2)C(=O)N1	> 100 µM
Cc1c(-c2ccccc2)[nH]c2cn[nH]c(=O)c12	> 100 µM
O=CN1N=C(c2cccc(Nc3ccnc4cc(Cl)ccc34)c2)CC1c1ccc(Cl)cc1 (stereo not given)	> 100 µM
CCCCCCCCCCCCCCCc1nc(=S)[nH][nH]1	> 100 µM
